Assignment: determine reported pIC50 for the given compounds.
Test system: COLO 205 colorectal tumor cells
Experiment: Tumor cell viability inhibition assay (CellTiter-Glo 2.0, 72 hours)
Format: cell-based
Conditions: Homo sapiens, COLO 205, 72 h, COLO 205 cell viability
pIC50: −log10 of the molar value.

Input line: // lookup pIC50 for Cc1cc(-c2cc(Cl)ccc2OCCn2c(C)nc3c(c2=O)CC(N(C)CC2CC(F)(F)C2)CC3)c2scc(C(=O)NC3CC(F)(F)C3)c2n1 (centres unmarked)
Output line: 4.70 to 5.30

Input line: // lookup pIC50 for Cc1cc(-c2cc(Cl)ccc2OCCn2c(C)nc3c(c2=O)CC(N(C)Cc2ncccn2)CC3)c2scc(C(=O)O)c2n1 (centres unmarked)
Output line: < 4.70

Input line: // lookup pIC50 for [2H]C([2H])([2H])N(Cc1ccnc(OC)c1)C1CCc2nc(C)n(CCOc3ccc(Cl)cc3-c3cc(C)nc4c(C(=O)O)csc34)c(=O)c2C1 (centres unmarked)
Output line: > 5.30

Input line: // lookup pIC50 for Cc1cc(-c2cc(Cl)ccc2OCCn2c(C)nc3c(c2=O)CC(N2CCC(OC(F)(F)F)CC2)CC3)c2scc(C(=O)NS(=O)(=O)C(F)(F)F)c2n1 (single isomer, unassigned)
Output line: 4.70 to 5.30

Input line: // lookup pIC50 for Cc1cc(-c2cc(Cl)ccc2OCCn2c(C)nc3c(c2=O)CC(N(C)Cc2cnc(C)s2)CC3)c2scc(C(=O)O)c2n1 (centres unmarked)
Output line: > 5.30

Input line: // lookup pIC50 for Cc1cc(-c2cc(Cl)ccc2OCCn2c(C)nc3c(c2=O)C[C@H](N2CCC(c4nc5ccc(F)cc5s4)CC2)CC3)c2scc(C(=O)O)c2n1 (single isomer, unassigned)
Output line: > 5.30

Input line: // lookup pIC50 for CO[C@@H](C1CCN([C@@H]2CCc3nc(C)n(CCOc4ccc(Cl)cc4-c4cc(C)nc5c(C(=O)O)csc45)c(=O)c3C2)CC1)C(F)(F)F (single isomer, unassigned)
Output line: > 5.30

Input line: // lookup pIC50 for COc1cc(C2CCN([C@@H]3CCc4nc(C)n(CCOc5ccc(Cl)cc5-c5cc(C)nc6c(C(=O)O)csc56)c(=O)c4C3)CC2)ccn1 (single isomer, unassigned)
Output line: > 5.30

Input line: // lookup pIC50 for Cc1cc(-c2cc(Cl)ccc2OCCn2c(C)nc3c(c2=O)CC(N2CC(F)C2)CC3)c2scc(C(=O)O)c2n1 (centres unmarked)
Output line: > 5.30

Input line: // lookup pIC50 for Cc1cc(-c2cc(Cl)ccc2OCCn2c(C)nc3c(c2=O)CC(N2CCN(C)C(=O)C2)CC3)c2scc(C(=O)O)c2n1 (centres unmarked)
Output line: < 4.70

Input line: // lookup pIC50 for CO[C@@H](C1CCN([C@H]2CCc3nc(C)n(CCOc4ccc(Cl)cc4-c4cc(C)nc5c(C(=O)O)csc45)c(=O)c3C2)CC1)C(F)(F)F (single isomer, unassigned)
Output line: > 5.30

---

Test system: COLO 205 colorectal tumor cells
Experiment: Tumor cell viability inhibition assay (CellTiter-Glo 2.0, 72 hours)
Type: cell-based
Details: Homo sapiens, COLO 205, 72 h, COLO 205 cell viability
pIC50: −log10 of the molar value.
measurement name: pIC50

Input line: Given the entry Cc1cc(-c2cc(Cl)ccc2OCCn2c(C)nc3c(c2=O)CC(N(C)C24CC5CC(CC(C5)C2)C4)CC3)c2scc(C(=O)O)c2n1 (single isomer, unassigned) , what pIC50 was observed with COLO 205 colorectal tumor cells?
Output line: > 5.30

Input line: Given the entry Cc1cc(-c2cc(Cl)ccc2OCCn2c(C)nc3c(c2=O)C[C@@H](N(C)[C@H]2CC[C@](C)(O)CC2)CC3)c2scc(C(=O)O)c2n1 (single isomer, unassigned) , what pIC50 was observed with COLO 205 colorectal tumor cells?
Output line: < 4.70

Input line: Given the entry Cc1cc(-c2cc(Cl)ccc2OCCn2c(C)nc3c(c2=O)C[C@H](N2CCC(c4cnn(C)c4)CC2)CC3)c2scc(C(=O)O)c2n1 (single isomer, unassigned) , what pIC50 was observed with COLO 205 colorectal tumor cells?
Output line: 4.70 to 5.30

---

pIC50: −log10 of the molar value.
Assignment: determine reported pIC50 for the given compounds.

Input line: Given the entry Cc1cc(-c2cc(Cl)ccc2OCCn2c(C)nc3c(c2=O)CC(N2CC4(CN(C)C4)C2)CC3)c2scc(C(=O)O)c2n1 (centres unmarked) , what pIC50 was observed with human eIF4E protein (Homo sapiens, UniProt P06730)?
Output line: > 7.00

Input line: Given the entry Cc1cc(-c2cc(Cl)ccc2OCCn2c(C)nc3c(c2=O)C[C@@H](N2CCC[C@@H](OC(F)(F)F)C2)CC3)c2scc(C(=O)O)c2n1 (single isomer, unassigned) , what pIC50 was observed with human eIF4E protein (Homo sapiens, UniProt P06730)?
Output line: > 7.00

Input line: Given the entry Cc1nc2c(c(=O)n1CC#Cc1ccc(Cl)cc1-c1ccnc3c(C(=O)O)csc13)C[C@@H](N1CCC[C@@]3(C1)CC3(F)F)CC2 (single isomer, unassigned) , what pIC50 was observed with human eIF4E protein (Homo sapiens, UniProt P06730)?
Output line: > 7.00

Input line: Given the entry Cc1cc(-c2cc(Cl)ccc2OCCn2c(C)nc3c(c2=O)CC(N2CCOCC2)CC3)c2scc(C(=O)O)c2n1 (centres unmarked) , what pIC50 was observed with human eIF4E protein (Homo sapiens, UniProt P06730)?
Output line: > 7.00

Input line: Given the entry COc1cc(CN(C)C2CCc3nc(C)n(CCOc4ccc(Cl)cc4-c4cc(C)nc5c(C(=O)NS(C)(=O)=O)csc45)c(=O)c3C2)ccn1 (single isomer, unassigned) , what pIC50 was observed with human eIF4E protein (Homo sapiens, UniProt P06730)?
Output line: > 7.00

Input line: Given the entry Cc1cc(-c2cc(Cl)ccc2OCCn2c(C)nc3c(c2=O)C[C@@H](N2CCC[C@]4(C2)CC4(F)F)CC32CC2)c2scc(C(=O)O)c2n1 (single isomer, unassigned) , what pIC50 was observed with human eIF4E protein (Homo sapiens, UniProt P06730)?
Output line: > 7.00

Input line: Given the entry COC1CCN(C2CCc3nc(C)n(CCOc4ccc(Cl)cc4-c4cc(C)nc5c(C(N)=O)csc45)c(=O)c3C2)CC1 (centres unmarked) , what pIC50 was observed with human eIF4E protein (Homo sapiens, UniProt P06730)?
Output line: 6.30 to 7.00

Input line: Given the entry Cc1cc(-c2cc(Cl)ccc2OCCn2c(C)nc3c(c2=O)CC(N(C)C2CC24CCC4)CC3)c2scc(C(=O)O)c2n1 (centres unmarked) , what pIC50 was observed with human eIF4E protein (Homo sapiens, UniProt P06730)?
Output line: > 7.00

Input line: Given the entry Cc1cc(-c2cc(Cl)ccc2OCCn2c(C)nc3c(c2=O)CC(N2CCC2)CC3)c2scc(C(=O)O)c2n1 (centres unmarked) , what pIC50 was observed with human eIF4E protein (Homo sapiens, UniProt P06730)?
Output line: > 7.00

Input line: Given the entry Cc1cc(-c2cc(Cl)ccc2OCCn2c(C)nc3c(c2=O)C[C@H](N(C)[C@H]2CC[C@@](C)(O)CC2)CC3)c2scc(C(=O)O)c2n1 (single isomer, unassigned) , what pIC50 was observed with human eIF4E protein (Homo sapiens, UniProt P06730)?
Output line: > 7.00

Input line: Given the entry Cc1cc(-c2cc(Cl)ccc2OCCn2c(C)nc3c(c2=O)C[C@@H](N2CCC(c4cnc(C(F)(F)F)nc4)CC2)CC3)c2scc(C(=O)O)c2n1 (single isomer, unassigned) , what pIC50 was observed with human eIF4E protein (Homo sapiens, UniProt P06730)?
Output line: > 7.00

---

Assignment: determine reported IC50 for the given compounds.
System: COLO 205 colorectal tumor cells
Test: Tumor cell viability inhibition assay (CellTiter-Glo 2.0, 72 hours)
Type: cell-based
Details: Homo sapiens, COLO 205, 72 h, COLO 205 cell viability

Input line: // lookup IC50 for Cc1cc(-c2cc(Cl)ccc2OCCn2c(C)nc3c(c2=O)CC(N(C)Cc2ccsc2)CC3)c2scc(C(=O)O)c2n1 (centres unmarked)
Output line: < 5 µM

Input line: // lookup IC50 for Cc1cc(-c2cc(Cl)ccc2OCCn2c(C)nc3c(c2=O)CC(N2CC(F)C2)CC3)c2scc(C(=O)NS(C)(=O)=O)c2n1 (single isomer, unassigned)
Output line: < 5 µM

Input line: // lookup IC50 for Cc1cc(-c2cc(Cl)ccc2OCCn2c(C)nc3c(c2=O)C[C@@H](N2CCCC[C@@H]2c2cccc(F)c2)CC32CC2)c2scc(C(=O)O)c2n1 (single isomer, unassigned)
Output line: 5 to 20 µM

Input line: // lookup IC50 for COC1(C)CCN(C2CCc3nc(C)n(CCOc4ccc(Cl)cc4-c4cc(C)nc5c(C(=O)O)csc45)c(=O)c3C2)CC1 (centres unmarked)
Output line: < 5 µM

Input line: // lookup IC50 for Cc1cc(-c2cc(Cl)ccc2OCCn2c(C)nc3c(c2=O)C[C@H](N2C[C@H]4CC[C@@H]2CC4OC(F)(F)F)CC32CC2)c2scc(C(=O)O)c2n1 (single isomer, unassigned)
Output line: < 5 µM
